Entries and their TGI
# Tested on: U251 CNS
# ASSAY: NCI tumour cell line growth inhibition, 48 h

These solved cases illustrate the format of a correct answer.
- COMPOUND: "COC(=O)C1(C)CCCC2(C)c3cc(OC)ccc3C(=O)C(Br)C12 (centres undefined)"
  TGI: "> 10 µM"
- COMPOUND: "CC[C@@]1(O)C(=O)NCc2c1cc1n(c2=O)Cc2cc3c(NC(C)=O)cccc3nc2-1"
  TGI: "> 100 µM"
- COMPOUND: "c1ccc([P+](c2ccccc2)(c2ccccc2)c2ccc(-c3ccc([P+](c4ccccc4)(c4ccccc4)c4ccccc4)cc3)cc2)cc1"
  TGI: "> 100 µM"

Here is the next item to consider.
Query: Give the measured TGI of CC(C)NC(=O)OCc1c(COC(=O)NC(C)C)c(-c2cc[n+](COC(=O)C(C)C)cc2)n2c1CCC2 .
Result: > 100 µM
